target: Human Serum Albumin (HSA) (Homo sapiens (Human), UniProt P02768); experiment: Chromatographic determination of Human Serum Albumin (HSA) binding; assay type: in vitro ADME; settings: ChiralPak HSA column, retention time converted to % HSA
Sequence (P02768 25-609): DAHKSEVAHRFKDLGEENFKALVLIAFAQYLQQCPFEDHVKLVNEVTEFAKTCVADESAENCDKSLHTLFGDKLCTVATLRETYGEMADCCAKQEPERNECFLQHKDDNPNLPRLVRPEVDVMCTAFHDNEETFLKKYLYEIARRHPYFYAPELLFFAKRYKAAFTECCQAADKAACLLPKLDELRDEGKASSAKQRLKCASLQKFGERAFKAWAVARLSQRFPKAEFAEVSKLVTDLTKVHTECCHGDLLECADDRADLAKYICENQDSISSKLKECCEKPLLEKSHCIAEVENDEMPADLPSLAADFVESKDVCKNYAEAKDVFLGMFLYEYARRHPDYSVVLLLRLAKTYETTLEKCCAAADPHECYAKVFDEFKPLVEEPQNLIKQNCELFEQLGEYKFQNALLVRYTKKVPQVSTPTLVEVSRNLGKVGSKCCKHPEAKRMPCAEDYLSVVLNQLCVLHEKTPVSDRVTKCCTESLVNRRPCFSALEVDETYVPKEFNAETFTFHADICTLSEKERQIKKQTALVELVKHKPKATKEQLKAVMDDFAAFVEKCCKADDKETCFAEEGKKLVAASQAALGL
EXPERIMENTAL_READOUT: HSA binding (%)

COMPOUND	UNIT	HSA binding
C[C@@H]1CN(c2nc(-n3ccc(OCC4(C(F)(F)F)CC4)n3)ccc2C(=O)NS(=N)(=O)c2ccccc2)C(C)(C)C1 (single isomer, unassigned) [drawing 339]	%	97.9
C[C@@H]1CN(c2nc(-n3ccc(OCC4(C(F)(F)F)CC4)n3)ccc2C(=O)NS(=N)(=O)c2ccccc2)C(C)(C)C1 (mixture of isomers)	%	98.1
C[C@@H]1CN(c2nc(-n3ccc(OCC4(C(F)(F)F)CC4)n3)ccc2C(=O)NS(=N)(=O)c2ccccc2)C(C)(C)C1 (single isomer, unassigned) [drawing 340]	%	98.4
C[C@@H]1CN(c2nc(-n3ccc(OCC4(C(F)(F)F)CC4)n3)ccc2C(=O)NS(=O)(=O)c2ccccc2)C(C)(C)C1 [drawing 337]	%	99.1

Where do the numbers come from? From patent US11186566B2.
